FYI, the data here is from patent US20250215104A1.

# Target Or System: T1, human soluble urokinase plasminogen activator receptor (hsuPAR) (human, UniProt Q03405 23-303, limits assumed)
# T1 construct: also called human suPAR; rhuPAR-His
# T1 sequence (Q03405 23-303 limits assumed): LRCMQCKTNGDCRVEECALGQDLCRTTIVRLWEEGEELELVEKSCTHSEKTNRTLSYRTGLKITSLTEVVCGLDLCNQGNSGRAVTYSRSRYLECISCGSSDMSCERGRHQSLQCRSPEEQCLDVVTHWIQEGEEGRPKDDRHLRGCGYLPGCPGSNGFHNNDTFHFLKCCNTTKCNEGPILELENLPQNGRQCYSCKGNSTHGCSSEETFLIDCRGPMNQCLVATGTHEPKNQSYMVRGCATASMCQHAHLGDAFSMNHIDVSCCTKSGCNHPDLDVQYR
# Method Summary: off-rate screen of scFv clones (kdis), Octet BLI
Readout Kind: koff (s⁻¹)
State just the number; it will be interpreted in s⁻¹.

Please give the measured koff for this binder: suPAR_DB04_E04 (scFv, V domains shown, scFv clone from phage display) VH: QVQLVQSGAEVKKPGASVKVSCKASGYTFTSYYVHWVRQAPGQGLEWMGWIDHENGNTIYDQKFQGRVTMTRDTSTSTVYMELSSLRSEDTAVYYCARGTDVDWFVYWGQGTLVTVSS VL: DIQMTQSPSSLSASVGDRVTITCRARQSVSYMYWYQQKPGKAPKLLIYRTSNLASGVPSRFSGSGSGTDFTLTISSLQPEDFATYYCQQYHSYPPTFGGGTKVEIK
0.00335

Please give the measured koff for this binder: suPAR_DB04_G08 (scFv, V domains shown, scFv clone from phage display) VH: QVQLVQSGAEVKKPGASVKVSCKASGHTLTGYYVHWVRQAPGQGLEWMGWIDHENGNTIYDQKFQGRVTMTRDTSTSTVYMELSSLRSEDTAVYYCARGYDVDWFVYWGQGTLVTVSS VL: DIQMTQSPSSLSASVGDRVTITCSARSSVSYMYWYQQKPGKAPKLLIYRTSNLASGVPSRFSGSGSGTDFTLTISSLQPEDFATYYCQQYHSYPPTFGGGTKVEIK
0.00317

Please give the measured koff for this binder: suPAR_DB04_F07 (scFv, V domains shown, scFv clone from phage display) VH: QVQLVQSGAEVKKPGASVKVSCKASGYTFTGYYVHWVRQAPGQGLEWMGWIDHENGNTIYDQKFQGRVTMTRDTSTSTVYMELSSLRSEDTAVYYCARGYDVDWFVYWGQGTLVTVSS VL: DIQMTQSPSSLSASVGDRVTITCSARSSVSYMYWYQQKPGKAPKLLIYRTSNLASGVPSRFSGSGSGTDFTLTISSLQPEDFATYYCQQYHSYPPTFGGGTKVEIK
0.00269
